- tested-on: Aromatase (Homo sapiens)
- Sequence (P11511 whole entry): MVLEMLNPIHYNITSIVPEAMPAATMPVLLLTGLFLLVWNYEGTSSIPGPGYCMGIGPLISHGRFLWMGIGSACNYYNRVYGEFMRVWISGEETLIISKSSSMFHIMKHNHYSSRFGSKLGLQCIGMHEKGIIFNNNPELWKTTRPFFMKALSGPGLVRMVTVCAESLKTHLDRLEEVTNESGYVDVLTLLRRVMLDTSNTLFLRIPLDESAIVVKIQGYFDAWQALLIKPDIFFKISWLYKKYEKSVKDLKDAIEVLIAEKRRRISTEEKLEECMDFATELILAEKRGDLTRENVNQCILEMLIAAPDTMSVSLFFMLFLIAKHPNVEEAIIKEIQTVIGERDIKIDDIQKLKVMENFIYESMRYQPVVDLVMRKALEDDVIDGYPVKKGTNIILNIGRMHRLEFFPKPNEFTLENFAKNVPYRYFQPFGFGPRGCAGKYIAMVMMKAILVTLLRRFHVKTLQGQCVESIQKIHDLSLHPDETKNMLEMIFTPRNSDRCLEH
- assay-overview: Inhibition of human placental microsomal aromatase using [1beta-3H] androstenedione as substrate assessed as tritiated H2O release preincubated for 5 mins followed by protein addition measured after 20 mins by beta counting method
parameter-measured: IC50
Write the numeric value and follow it with the unit.

Determine from records and report IC50 for `C[C@]12Cc3cc[nH]c3C(=O)[C@@H]1CC[C@@H]1[C@@H]2CC[C@]2(C)[C@@H](O)CC[C@@H]12`
512 nM
